Exercise: state measured TGI for each of the compounds provided.
Tested on: BT-549
Test: Growth inhibition of human BT549 cells after 48 hrs by SRB protein assay
Format: functional
Conditions: BT-549, 48 h, read-out: Log TGI (converted)
Numbers only, in µM.

>>> observed_result("CCOC(=O)c1ccc(NC(=O)CC2Sc3ncnn3C2=O)cc1 (stereo unspecified)")
43.7
>>> observed_result("O=c1/c(=C/c2ccc(F)cc2)sc2ncnn12")
100
>>> observed_result("O=C(CC1Sc2ncnn2C1=O)Nc1ccccc1 (stereo unspecified)")
1

Exercise: May I ask what TGI has been recorded for O=C(CC1Sc2ncnn2C1=O)Nc1ccc(Cl)cc1 (stereo unspecified) ?
Key: 95.5
